Measured values drawn from ChEMBL document CHEMBL3872213 for this set.

Assay: Cytotoxicity against mouse J774A.1 cells measured after 24 hrs by resazurin based fluorescence method
Type: toxicity, J774.A1
Task for the reader: assign each of the following compounds its reported log10(IC50 at 24 h).
In plain terms, each number is the log10 of measured IC50 at 24 h in µM.

Prompt: Name the recorded log10(IC50 at 24 h) for `O=C(N/N=C/c1ccccc1Oc1no[n+]([O-])c1S(=O)(=O)c1ccccc1)c1ccncc1` .
Completion: 1.03

Prompt: Looking for the measured log10(IC50 at 24 h) of `O=Cc1ccccc1Oc1no[n+]([O-])c1S(=O)(=O)c1ccccc1` , can you help?
Completion: 0.87

Prompt: Any idea what its log10(IC50 at 24 h) is? The compound is `O=C(N/N=C/c1ccc(Oc2no[n+]([O-])c2-c2ccccc2)cc1)c1ccncc1`
Completion: 2.61

Prompt: Entry under review: `O=Cc1ccc(Oc2no[n+]([O-])c2S(=O)(=O)c2ccccc2)cc1` . Reported log10(IC50 at 24 h)?
Completion: 0.34

Prompt: Could you tell me which log10(IC50 at 24 h) is on file for `O=Cc1cccc(Oc2no[n+]([O-])c2S(=O)(=O)c2ccccc2)c1` ?
Completion: 0.75

Prompt: Can you look up the measured log10(IC50 at 24 h) of `O=C(N/N=C/c1cccc(Oc2no[n+]([O-])c2S(=O)(=O)c2ccccc2)c1)c1ccncc1` for me?
Completion: 0.63

Prompt: Which value of log10(IC50 at 24 h) has been reported for `O=C(N/N=C/c1ccc(Oc2no[n+]([O-])c2S(=O)(=O)c2ccccc2)cc1)c1ccncc1` in the records?
Completion: 1.03

* * *

Test: Chemical stability in pH 1 PBS buffer assessed as compound degradation after 1 hr by HPLC-MS/MS method
Format: physicochemical
Conditions: read-out: Drug degradation
Measurement type: degraded at 1 h
Number first, unit second.

Prompt: Fill blank: measured degraded at 1 h of the compound `O=C(N/N=C/c1ccc(Oc2no[n+]([O-])c2S(=O)(=O)c2ccccc2)cc1)c1ccncc1` is ____.
Completion: 90%

* * *

Assay: Induction of nitric oxide production assessed as nitrite level at 10^-4M measured after 1 hr in presence 1:50 molar excess of L-cysteine by Griess reagent based spectrophotometer relative to control
Assay type: physicochemical
Details: 100 µM
Measurement type: Activity (%)
Your answer is read as %, so omit the unit and give the number.

Prompt: Which measured Activity value corresponds to `O=Cc1ccccc1Oc1no[n+]([O-])c1-c1ccccc1` ?
Completion: 25.1

Prompt: Consider the molecule `Cc1c(Oc2cccc(C=O)c2)no[n+]1[O-]` and give its measured Activity.
Completion: 0

Prompt: What does the data say about its Activity? Entry: `Cc1c(Oc2ccccc2C=O)no[n+]1[O-]`
Completion: 0

Prompt: Tell me the measured Activity of `O=Cc1ccc(Oc2no[n+]([O-])c2-c2ccccc2)cc1` , please.
Completion: 19.4

Prompt: What measured Activity goes with `O=Cc1cccc(Oc2no[n+]([O-])c2-c2ccccc2)c1` ?
Completion: 23.1

Prompt: Consider the molecule shown here: `O=C(N/N=C/c1ccccc1Oc1no[n+]([O-])c1-c1ccccc1)c1ccncc1` What is its recorded Activity?
Completion: 11.2

Prompt: Looking for the measured Activity of `O=C(N/N=C/c1ccc(Oc2no[n+]([O-])c2-c2ccccc2)cc1)c1ccncc1` , can you help?
Completion: 7.33

Prompt: Which Activity value is on record for `O=Cc1cccc(Oc2no[n+]([O-])c2S(=O)(=O)c2ccccc2)c1` ?
Completion: 27.1

Prompt: Recorded Activity of `O=Cc1ccccc1Oc1no[n+]([O-])c1S(=O)(=O)c1ccccc1` , please.
Completion: 21.2

Prompt: Requested read-out: Activity. Entry: `Cc1c(Oc2ccc(C=O)cc2)no[n+]1[O-]`
Completion: 0

Prompt: Request the reported Activity associated with NNC(=O)c1ccncc1 [ISONIAZID]
Completion: 0

Prompt: Give its Activity value. Item: `Cc1c(Oc2ccccc2/C=N/NC(=O)c2ccncc2)no[n+]1[O-]`
Completion: 0.35

Prompt: What value of Activity has been recorded for this entry: `Cc1c(Oc2cccc(/C=N/NC(=O)c3ccncc3)c2)no[n+]1[O-]`
Completion: 0.16

Prompt: Name the recorded Activity for `O=C(N/N=C/c1ccc(Oc2no[n+]([O-])c2S(=O)(=O)c2ccccc2)cc1)c1ccncc1` .
Completion: 43.5

Prompt: May I ask what Activity has been recorded for CO[C@H]1/C=C/O[C@@]2(C)Oc3c(C)c(O)c4c(O)c(c(/C=N/N5CCN(C)CC5)c(O)c4c3C2=O)NC(=O)/C(C)=C\C=C\[C@H](C)[C@H](O)[C@@H](C)[C@@H](O)[C@@H](C)[C@H](OC(C)=O)[C@@H]1C [RIFAMPIN] ?
Completion: 0

Prompt: I am curious: what Activity value has been reported for `O=Cc1ccc(Oc2no[n+]([O-])c2S(=O)(=O)c2ccccc2)cc1` ?
Completion: 24.4

Prompt: # Activity lookup, item `O=C(N/N=C/c1cccc(Oc2no[n+]([O-])c2S(=O)(=O)c2ccccc2)c1)c1ccncc1`
Completion: 38.5

Prompt: What value of Activity has been reported for the following molecule? `O=C(N/N=C/c1cccc(Oc2no[n+]([O-])c2-c2ccccc2)c1)c1ccncc1`
Completion: 6.87

Prompt: Query: Activity; subject: `O=C(N/N=C/c1ccccc1Oc1no[n+]([O-])c1S(=O)(=O)c1ccccc1)c1ccncc1`
Completion: 44.2

Prompt: Which Activity is listed for `Cc1c(Oc2ccc(/C=N/NC(=O)c3ccncc3)cc2)no[n+]1[O-]` ?
Completion: 2.02
